target: HLA-DRB1*15:01 MHCII molecule (human); experiment: competition ELISA; 25 nM huCLIP-bio; conditions: modification not given
property measured: pIC50
Scale note: pIC50 = -log10(concentration in M).

## Task Can you look up the measured pIC50 of PVSQMRMATPLLMRP [mCLIP] for me?
## Result 7.83
